- Subject of test: mouse TAAR1 (Mus musculus (Mouse))
Measured property: Kd

QUERY: Tell me its Kd on mouse TAAR1 (Mus musculus (Mouse)): CCN(C[C@H]1COC(N)=N1)c1ccccc1 [reference compound]
RESULT: ~0.7 nM

====

- Subject of test: rat TAAR1 (Rattus norvegicus (Rat), UniProt Q923Y9)
- Sequence (Q923Y9 whole entry): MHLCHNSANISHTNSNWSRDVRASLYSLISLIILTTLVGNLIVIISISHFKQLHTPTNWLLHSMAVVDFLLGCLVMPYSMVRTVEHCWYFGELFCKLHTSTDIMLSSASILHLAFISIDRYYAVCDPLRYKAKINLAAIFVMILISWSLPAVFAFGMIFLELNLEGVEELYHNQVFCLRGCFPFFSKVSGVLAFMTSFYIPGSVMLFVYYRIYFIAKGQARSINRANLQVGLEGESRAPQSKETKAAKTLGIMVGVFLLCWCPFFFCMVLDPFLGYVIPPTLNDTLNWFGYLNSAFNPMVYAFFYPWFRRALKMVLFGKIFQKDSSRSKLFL
- Procedure text: Radioligand binding assay on rat TAAR1
- Condition description: rat TAAR1, membranes of HEK-293 cells, second value of the cell pair mouse/rat
Counter-ions that a name gives are not always drawn.
// assign y if Ki falls strictly below 0.08 µM, else n (ties count as n)

> print(dat)
                                   compound                           subject.of.test  label.class
1  FC(F)(F)c1ccc(-c2nc3ccc([C@@H]4CNCCO4)cc3o2)cn1 [Example 53, hydrochloride]  rat TAAR1 (Rattus norvegicus (Rat), UniProt Q923Y9)            n
2  FC(F)(F)c1cc(-c2nc3ccc([C@H]4CNCCO4)cc3o2)ccn1 [Example 55, hydrochloride]  rat TAAR1 (Rattus norvegicus (Rat), UniProt Q923Y9)            n
3  Fc1ccc(-n2cc(-c3ccc([C@@H]4CNCCO4)cc3)cn2)cc1 [Example 26, hydrochloride]  rat TAAR1 (Rattus norvegicus (Rat), UniProt Q923Y9)            y

QUERY: Is Ki of c1ccc2[nH]c(-c3ccc(C4CNCCO4)cc3)nc2c1 (centres unmarked) [Example 1, hydrochloride] strictly below 0.08 µM?
RESULT: n

QUERY: Check if Ki falls below 0.08 µM for FC(F)(F)c1cnc2[nH]c3ccc([C@H]4CNCCO4)cc3c2c1 [Example 46, hydrochloride] .
RESULT: y

QUERY: I'd appreciate it if you could check whether c1cnc2[nH]c3ccc([C@H]4CNCCO4)cc3c2c1 [Example 45, hydrochloride] has Ki smaller than 0.08 µM.
RESULT: n

QUERY: Record Clc1ccc(-c2cc(-c3ccc([C@@H]4CNCCO4)cc3)n[nH]2)cn1 [Example 38, hydrochloride] : is its Ki strictly below 0.08 µM?
RESULT: y

====

- Subject of test: mouse TAAR1 (Mus musculus (Mouse), UniProt Q923Y8)
- Sequence (Q923Y8 whole entry): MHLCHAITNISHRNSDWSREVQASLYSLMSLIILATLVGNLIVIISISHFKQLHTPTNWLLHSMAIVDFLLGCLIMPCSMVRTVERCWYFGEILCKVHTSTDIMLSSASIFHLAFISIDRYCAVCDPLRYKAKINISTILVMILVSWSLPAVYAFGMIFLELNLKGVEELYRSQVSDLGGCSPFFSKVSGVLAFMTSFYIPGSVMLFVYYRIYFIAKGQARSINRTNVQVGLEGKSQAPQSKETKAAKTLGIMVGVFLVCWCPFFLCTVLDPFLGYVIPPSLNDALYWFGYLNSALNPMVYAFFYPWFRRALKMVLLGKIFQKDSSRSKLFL
- Procedure text: Radioligand binding assay on mouse TAAR1
- Condition description: mouse TAAR1, membranes of HEK-293 cells, first value of the cell pair mouse/rat
Where a name gives a salt, the structure may show the parent alone.
Measured property: Ki (µM)
Kindly answer with a numeric value in µM, unit omitted.

> print(dat)
                                   compound  reported
1  N#Cc1ccc(-c2cc(-c3ccc([C@H]4CNCCO4)cc3)n[nH]2)cc1 [Example 28, hydrochloride]     0.001
2  Fc1ccc(-c2cc(-c3ccc(C4CNCCO4)cc3)n[nH]2)cc1 (stereo not shown) [Example 4, hydrochloride]    0.0012
3  Clc1ccc(-c2cc(-c3ccc([C@@H]4CNCCO4)cc3)n[nH]2)cn1 [Example 38, hydrochloride]    0.0027
4  Fc1ccc(-n2cc(-c3ccc([C@H]4CNCCO4)cc3)nn2)cc1 [Example 18, hydrochloride]     0.002
5  FC(F)(F)c1ccc(-c2nc3ccc([C@@H]4CNCCO4)cc3o2)cn1 [Example 53, hydrochloride]    0.0463

QUERY: Check the records and state Ki for Fc1ccc(-c2nc3cc([C@@H]4CNCCO4)ccc3[nH]2)cc1 [Example 44, hydrochloride]
RESULT: 0.004

QUERY: Dear colleague, please send me the reported Ki for N#Cc1ccc(-c2cc(-c3ccc(C4CNCCO4)cc3)n[nH]2)cc1 (stereo not shown) [Example 6, hydrochloride] when you can.
RESULT: 0.0019

QUERY: # return recorded Ki for entry Clc1ccc(-c2cc(-c3ccc(C4CNCCO4)cc3)n[nH]2)cn1 (stereo not shown) [Example 5, hydrochloride]
RESULT: 0.0044

QUERY: Answer with the recorded Ki for the compound listed here: Fc1ccc(-c2cc(-c3ccc([C@@H]4CNCCO4)cc3F)n[nH]2)cc1 [Example 41, hydrochloride]
RESULT: 0.0011

QUERY: Report measured Ki; entry is Clc1ccc2nc(-c3ccc(C4CNCCO4)cc3)[nH]c2c1 (stereo not shown) [Example 2, hydrochloride]
RESULT: 0.0032

QUERY: Identify the reported Ki for the following entry. Fc1ccc(-c2cc(-c3ccc([C@H]4CNCCO4)cc3)n[nH]2)cc1 [Example 29, hydrochloride]
RESULT: 0.0007

QUERY: In one line, give reported Ki of the entry FC(F)(F)c1ccc2c(n1)[nH]c1ccc([C@H]3CNCCO3)cc12 [Example 49, hydrochloride] .
RESULT: 0.0032

QUERY: Note down Ki recorded for Clc1cccc(-c2cc(-c3ccc([C@H]4CNCCO4)cc3)n[nH]2)c1 [Example 9, hydrochloride]
RESULT: 0.0004

QUERY: Return reported Ki. Input compound: Fc1ccc(-c2nc(-c3ccc([C@H]4CNCCO4)cc3)n[nH]2)cc1 [Example 20, hydrochloride]
RESULT: 0.0012

QUERY: Determine its reported Ki: Clc1ccc(-c2cc(-c3ccc([C@H]4CNCCO4)cc3)n[nH]2)cn1 [Example 37, hydrochloride]
RESULT: 0.004

QUERY: Given the compound FC(F)(F)c1cnc2[nH]c3ccc([C@H]4CNCCO4)cc3c2c1 [Example 46, hydrochloride] , write its reported Ki.
RESULT: 0.0023

====

Catalogue of compounds with associated Ki
- Subject of test: rat TAAR1 (Rattus norvegicus (Rat), UniProt Q923Y9)
- Procedure text: Radioligand binding assay on rat TAAR1
- Condition description: rat TAAR1, membranes of HEK-293 cells, second value of the cell pair mouse/rat; hydrochloride
Where a name gives a salt, the structure may show the parent alone.
Numbers only; they are read as µM.

QUERY: Identify measured Ki associated with FC(F)(F)c1cnc2[nH]c3ccc([C@@H]4CNCCO4)cc3c2c1 [Example 50, hydrochloride]
RESULT: 0.0303

QUERY: For FC(F)(F)c1cnc2[nH]c3ccc([C@@H]4CNCCO4)cc3c2c1 [Example 48, hydrochloride] , write its Ki.
RESULT: 0.0639

====

Measured log10(Ki), listed per entry for reference.
- Subject of test: UniProt Q923Y8
- Procedure text: Radioligand binding assay on mouse TAAR1
- Condition description: mouse TAAR1, membranes of HEK-293 cells, first value of the cell pair mouse/rat
Structures can show the parent of a compound that is named as a salt.
Note the log scale: values are log10 of Ki expressed in µM.

Worked set:
> print(dat)
                                   molecule  reported
1  Fc1ccc(-c2nnc(-c3ccc([C@H]4CNCCO4)cc3)o2)cc1 [Example 17, hydrochloride]     -2.49
2  Fc1ccc(-c2ncn(-c3ccc([C@@H]4CNCCO4)cc3)n2)cc1 [Example 36, hydrochloride]     -2.01
3  Brc1cnc2nc(-c3ccc([C@H]4CNCCO4)cc3)[nH]c2c1 [Example 7, hydrochloride]     -2.05
4  Fc1ccc(-c2nnc(-c3ccc([C@@H]4CNCCO4)cc3)o2)cc1 [Example 34, hydrochloride]     -2.40
5  Fc1ccc(-c2cn(-c3ccc([C@@H]4CNCCO4)cc3)nn2)cc1 [Example 39, hydrochloride]     -3.00

QUERY: Output reported log10(Ki) of the molecule c1ccc2[nH]c(-c3ccc(C4CNCCO4)cc3)nc2c1 (stereo not shown) [Example 1, hydrochloride] on UniProt Q923Y8.
RESULT: -1.42

QUERY: Look up and report log10(Ki), with UniProt Q923Y8 as system, for Fc1cc(F)c2nc(-c3ccc([C@H]4CNCCO4)cc3)[nH]c2c1 [Example 11, hydrochloride]
RESULT: -2.05

QUERY: // fetch log10(Ki); item: O=C(Nc1n[nH]c2cc(C3CNCCO3)ccc12)c1ccc(F)cc1 (stereo not shown) [Example 21, hydrochloride] ; system: UniProt Q923Y8
RESULT: -1.21

QUERY: Report the value of log10(Ki) obtained on UniProt Q923Y8 for Fc1ccc(-n2cc(-c3ccc([C@@H]4CNCCO4)cc3)cn2)cc1 [Example 26, hydrochloride] .
RESULT: -3.22

QUERY: Param request: log10(Ki) | system UniProt Q923Y8 | item Fc1ccc(-c2cc(-c3ccc([C@@H]4CNCCO4)cc3)n[nH]2)c(F)c1 [Example 14, hydrochloride]
RESULT: -3.10

QUERY: Supply log10(Ki) measured with UniProt Q923Y8 for Clc1ccc(-c2cc(-c3ccc(C4CNCCO4)cc3)n[nH]2)cc1 (stereo not shown) [Example 3, hydrochloride] .
RESULT: -3.00

QUERY: Please tell me the measured log10(Ki) for Fc1ccc(-c2cc(-c3ccc([C@@H]4CNCCO4)cc3)n[nH]2)cc1 [Example 31, hydrochloride] ; system: UniProt Q923Y8.
RESULT: -3.00

QUERY: Find the measured log10(Ki) of Fc1ccc(-c2nc(-c3ccc([C@@H]4CNCCO4)cc3)n[nH]2)cc1 [Example 23, hydrochloride] with UniProt Q923Y8 as test system.
RESULT: -2.82

QUERY: Report measured log10(Ki) on UniProt Q923Y8; entry: Fc1ccc(-c2nc3cc([C@H]4CNCCO4)ccc3[nH]2)cc1 [Example 43, hydrochloride]
RESULT: -2.85

QUERY: GET log10(Ki) | system: UniProt Q923Y8 | item: N#Cc1cccc(-c2cc(-c3ccc(C4CNCCO4)cc3)n[nH]2)c1 (stereo not shown) [Example 12, hydrochloride]
RESULT: -3.30

QUERY: Recall the reported log10(Ki) of N#Cc1ccc(-c2cc(-c3ccc([C@H]4CNCCO4)cc3)n[nH]2)c(F)c1 [Example 33, hydrochloride] on UniProt Q923Y8 and write it down.
RESULT: -2.80

These entries and their values trace back to patent US9181230B2.
